Recorded values, source PubChem BioAssay.

# assay-text: E. coli acrAB mutant growth effects, primary screen, E. coli filamentation inducers, strain DRC39, OD650, 24 h (AID 1178);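 note: growth measured as culture turbidity by optical density at 650 nm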
# measurement-conditions: higher = more signal, called active from +8 up or from −8 down
Where z-score equals or exceeds -0.008, the correct label is 1; where it does not, the label is 0.

Worked examples, 2 molecules total:
molecule=NCCCCCNC(=O)[C@H]1C[C@H]2C(=O)N[C@@H](Cc3ccccc3)C(=O)N2[C@H]1c1ccc(O)cc1 cat=1
molecule="CCCCCN1CC=CC23O[C@@H]4C=CCOC(=O)[C@@H]4[C@H]2C(=O)N(CCO)[C@@H]3C1=O (stereo partly drawn)" cat=0

Query :: Given C=C(CCCC)C(=O)CC[C@H](OC(=O)c1ccccc1-c1ccccc1C(=O)O)c1ccccc1OCCO , state whether its z-score is at least -0.008.
Result :: 1

Query :: Given CC(C)CNC(=O)[C@@]1(C)c2ccccc2C(=O)N(Cc2cc(C(F)(F)F)cc(C(F)(F)F)c2)[C@H]1c1ccc(CO)cc1 , state whether its z-score is at least -0.008.
Result :: 1

Query :: Given CN1C(=O)C2C(C1=O)C1C=C(CCCO)C2C(C2CC2)N1Cc1cc2c(cc1Br)OCO2 (stereo not drawn) , state whether its z-score is at least -0.008.
Result :: 0

Query :: Given CCOC(=O)C1=CCC(c2ccccc2)N(S(=O)(=O)c2ccc([N+](=O)[O-])cc2)C1 (stereo not drawn) , state whether its z-score is at least -0.008.
Result :: 0

###

# System: XIP peptide (Xip251-270)
# assay-text: small-molecule binders of XIP peptide, primary screen, biochemical, small-molecule microarray, fluorescence 635/667 nm, 0.5 µg/mL protein (AID 1183)
# measurement-conditions: small-molecule microarray binding, fluorescence 635 nm; higher = more signal
Below, each entry is listed alongside its reported composite z-score.
# print the numeric value only

Completed entries (count: 2):
compound=C=CCOC(=O)[C@H]1[C@@H]2C(=O)O[C@@H](c3ccccc3)[C@@H](c3ccccc3)N2[C@@H](c2ccc(OCCOC(=O)[C@H]3C[C@H]4C(=O)N[C@@H](CCCCNC(C)=O)C(=O)N4[C@H]3c3cccc(OCCO)c3)cc2)[C@]12C(=O)Nc1ccc(I)cc12 endpoint_label="composite z-score" numeric_value=0.68
compound=C=C(CCCC)/C(=C/C[C@H](OC(C)=O)c1ccc(OCCO)cc1)c1cc(C(=O)OC)ccc1OC endpoint_label="composite z-score" numeric_value=0.71

Notebook: O=C1C2C=CC(C(O)c3ccc(I)cc3)N(Nc3ccccc3)C2C(=O)N1c1ccccc1 (stereo unspecified) , composite z-score read as 0.702

Notebook: C=C(/C(=C/C[C@H](OC(=O)c1ccncc1)c1cccc(OCCO)c1)c1cnc2ccccc2c1)C(C)C , composite z-score read as 0.67

Notebook: C=CCN1C(=O)[C@]2(O[C@H](CCO)[C@@H]([Si](C)(C)c3ccc(OC)cc3)[C@@H]2C)c2cc(N3C(=O)COc4ccccc43)ccc21 , composite z-score read as 0.677

Notebook: C=CCC(OC(C)=O)[C@@H]1[C@@H](N(Cc2ccc(-c3cccc(C(F)(F)F)c3)o2)C(=O)c2cccc3ccccc23)c2cc(OCCCO)ccc2N1C(=O)Cc1ccc(OC)cc1 (stereo partly specified) , composite z-score read as 0.456

Notebook: COc1cc(NN2C(C(O)c3ccccc3)C=CC3C(=O)N(C)C(=O)C32)cc(OC)c1OC (stereo unspecified) , composite z-score read as 0.346

Notebook: Cc1cccc([C@H]2C[C@H]3C(I)=C[C@@H]2C(=O)[C@]32CO2)c1 , composite z-score read as -0.452

Notebook: COC(=O)C(CC#Cc1ccc2c(c1)[C@]1(C(=O)N2)[C@H](c2ccc(OCCO)cc2)N2[C@H](c3ccccc3)[C@H](c3ccccc3)OC(=O)[C@H]2[C@@H]1C(=O)N1CCN(c2ncccn2)CC1)C(=O)OC , composite z-score read as 0.775
